- MEASUREMENT_SETUP: human gut metagenome, 24 h, 2 µM; also: call rule not given here
MEASURED_ATTRIBUTE: Bacterial Biotransformation

MOLECULE: CCCCC1=NC2(CCCC2)C(=O)N1Cc1ccc(-c2ccccc2-c2nnn[nH]2)cc1 [IRBESARTAN]
MEASURED_ATTRIBUTE: Bacterial Biotransformation
RESULT: Compound NOT metabolized

MOLECULE: CN1C(C(=O)Nc2ccccn2)=C(O)c2sccc2S1(=O)=O [TENOXICAM]
MEASURED_ATTRIBUTE: Bacterial Biotransformation
RESULT: Compound NOT metabolized

MOLECULE: CC(=O)O[C@]1(C(C)=O)CC[C@H]2[C@@H]3C=C(Cl)C4=CC(=O)[C@@H]5C[C@@H]5[C@]4(C)[C@H]3CC[C@@]21C [CYPROTERONE ACETATE]
MEASURED_ATTRIBUTE: Bacterial Biotransformation
RESULT: Compound NOT metabolized
